Measurement target: Neurogenic locus notch homolog protein 2 (Homo sapiens) (UniProt Q04721)
Sequence (Q04721 whole entry, looked up): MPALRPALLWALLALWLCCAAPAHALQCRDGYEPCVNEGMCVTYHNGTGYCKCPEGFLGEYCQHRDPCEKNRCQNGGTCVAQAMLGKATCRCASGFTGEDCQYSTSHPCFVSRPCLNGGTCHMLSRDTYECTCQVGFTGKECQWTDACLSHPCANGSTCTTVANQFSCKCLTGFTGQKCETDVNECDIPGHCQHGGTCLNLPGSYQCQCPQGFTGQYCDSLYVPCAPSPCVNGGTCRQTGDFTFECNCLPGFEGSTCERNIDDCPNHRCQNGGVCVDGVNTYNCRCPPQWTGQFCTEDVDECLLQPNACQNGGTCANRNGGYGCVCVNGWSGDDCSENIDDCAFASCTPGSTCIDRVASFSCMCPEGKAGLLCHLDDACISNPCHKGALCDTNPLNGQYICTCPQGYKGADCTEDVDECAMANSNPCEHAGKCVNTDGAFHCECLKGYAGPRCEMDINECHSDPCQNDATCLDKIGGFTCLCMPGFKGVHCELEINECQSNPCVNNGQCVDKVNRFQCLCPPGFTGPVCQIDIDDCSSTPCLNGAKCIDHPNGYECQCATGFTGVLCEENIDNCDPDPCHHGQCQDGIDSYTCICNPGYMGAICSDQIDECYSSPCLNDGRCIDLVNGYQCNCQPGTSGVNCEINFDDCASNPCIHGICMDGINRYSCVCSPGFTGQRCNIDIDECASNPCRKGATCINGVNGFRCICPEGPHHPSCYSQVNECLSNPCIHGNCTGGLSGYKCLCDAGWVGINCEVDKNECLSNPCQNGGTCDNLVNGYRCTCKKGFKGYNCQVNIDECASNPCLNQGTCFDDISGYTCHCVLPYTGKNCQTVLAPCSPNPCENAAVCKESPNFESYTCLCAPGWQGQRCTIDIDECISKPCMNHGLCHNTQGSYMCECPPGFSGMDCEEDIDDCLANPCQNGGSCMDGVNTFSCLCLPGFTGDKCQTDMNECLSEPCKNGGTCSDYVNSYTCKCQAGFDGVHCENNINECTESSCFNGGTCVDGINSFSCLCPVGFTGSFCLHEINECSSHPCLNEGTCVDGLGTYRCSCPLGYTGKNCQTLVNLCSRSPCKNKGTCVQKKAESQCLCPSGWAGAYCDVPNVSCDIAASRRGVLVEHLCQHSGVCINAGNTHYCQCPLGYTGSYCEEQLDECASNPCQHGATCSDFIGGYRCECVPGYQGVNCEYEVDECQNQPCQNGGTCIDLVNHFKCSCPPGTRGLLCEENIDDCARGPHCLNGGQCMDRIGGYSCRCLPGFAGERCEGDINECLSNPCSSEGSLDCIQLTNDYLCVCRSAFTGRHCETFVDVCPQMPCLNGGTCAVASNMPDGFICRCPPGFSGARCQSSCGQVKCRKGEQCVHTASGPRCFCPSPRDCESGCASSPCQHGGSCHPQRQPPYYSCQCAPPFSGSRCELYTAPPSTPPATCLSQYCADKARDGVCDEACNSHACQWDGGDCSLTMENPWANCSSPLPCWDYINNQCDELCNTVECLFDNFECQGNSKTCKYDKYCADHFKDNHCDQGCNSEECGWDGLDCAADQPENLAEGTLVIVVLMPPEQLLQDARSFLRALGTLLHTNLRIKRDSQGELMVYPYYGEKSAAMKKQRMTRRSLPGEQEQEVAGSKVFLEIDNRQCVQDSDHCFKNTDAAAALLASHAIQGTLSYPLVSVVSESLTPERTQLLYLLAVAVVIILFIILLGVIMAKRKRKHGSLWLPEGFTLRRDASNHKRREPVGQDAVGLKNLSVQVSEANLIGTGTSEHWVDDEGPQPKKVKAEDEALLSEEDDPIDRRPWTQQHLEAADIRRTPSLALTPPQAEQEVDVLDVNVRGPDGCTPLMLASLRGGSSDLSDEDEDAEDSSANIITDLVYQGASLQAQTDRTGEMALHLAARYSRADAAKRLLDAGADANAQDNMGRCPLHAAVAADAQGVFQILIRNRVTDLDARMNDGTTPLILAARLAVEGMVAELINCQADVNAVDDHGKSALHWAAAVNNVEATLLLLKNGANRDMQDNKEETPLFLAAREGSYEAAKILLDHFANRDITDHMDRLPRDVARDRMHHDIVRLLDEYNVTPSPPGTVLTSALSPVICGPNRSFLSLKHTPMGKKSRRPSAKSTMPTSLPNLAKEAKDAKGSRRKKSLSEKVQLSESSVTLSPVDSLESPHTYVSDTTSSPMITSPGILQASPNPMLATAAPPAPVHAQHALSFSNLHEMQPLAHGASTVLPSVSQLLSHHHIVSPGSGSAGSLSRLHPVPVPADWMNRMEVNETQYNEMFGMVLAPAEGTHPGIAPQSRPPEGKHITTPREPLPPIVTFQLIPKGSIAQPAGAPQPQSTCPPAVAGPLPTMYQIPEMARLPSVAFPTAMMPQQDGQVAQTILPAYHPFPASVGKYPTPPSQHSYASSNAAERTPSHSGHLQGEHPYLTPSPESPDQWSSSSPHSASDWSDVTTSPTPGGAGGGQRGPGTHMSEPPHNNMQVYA
Procedure details: Notch2 binders on small-molecule microarrays, primary screen, biochemical, small-molecule microarray, 635 nm fluorescence, stem cell growth factors (AID 1073)
Run conditions: Notch2 binding, higher = more signal
Please respond with reported composite z-score for every item in the list.

Example entries and their recorded answers appear below.
C=CC[C@]1(C(N)=O)N=C(c2ccc(OCCCO)cc2)O[C@H]1c1ccccc1CN=[N+]=[N-]: 0.0233
C=CC[C@]1(C(=O)N2CCCCC2)N=C(c2ccc(OCCCO)cc2)O[C@H]1c1ccccc1N=[N+]=[N-]: 1.5
O=C1c2ccccc2[C@](Cc2ccccc2I)(C(=O)NCc2ccccc2)[C@H](c2ccc(CO)cc2)N1Cc1ccccc1C(F)(F)F: -1.28

Moving on to another compound below.
Give the reported composite z-score for this compound. CC(C)CNC(=O)[C@@]1(C)c2ccccc2C(=O)N(Cc2ccc(OC(F)(F)F)cc2)[C@H]1c1ccc(CO)cc1 -1.71

* * *

Procedure details: mitochondrial membrane potential change in A549 cells, profiling panel, cell-based, JC-1 fluorescence, basal, 24 h, 100 nL (AID 1138);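 also: A549 lung adenocarcinoma cells under basal conditions with no added stimulus; test concentration not given here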
Run conditions: higher = more signal
Test readout: z-score
One number for each entry.

Example entries and their recorded answers appear below.
C=CCNC(=O)[C@H]1[C@@H]2C(=O)O[C@@H](c3ccccc3)[C@@H](c3ccccc3)N2[C@@H](c2ccccc2OCCO)[C@]12C(=O)N(C(=O)OCCOC)c1ccc(C#CCC(C(=O)OC)C(=O)OC)cc12: -1.18
N#Cc1ccc(NN2C(C(O)c3ccc(I)cc3)C=CC3C(=O)N(c4ccccc4)C(=O)C32)cc1 (stereo not drawn): 1.96

Give the reported z-score for this compound. CCC1=C2CN(Cc3ccccc3Br)[C@@H]([C@@H](O)Cc3ccccc3)C2C=CCC1 (stereo partly drawn) -0.7

* * *

System: glycogen synthase kinase-3 (GSK3A per assay name; protocol says GSK3B)
Procedure details: GSK3 binders on small-molecule microarrays, primary screen, biochemical, small-molecule microarray, 635 nm fluorescence, GSK3A (AID 1103); also: the record names both GSK3A and GSK3B
Run conditions: small-molecule microarray binding, fluorescence 635 nm; higher = more signal
Please respond with reported composite z-score for every item in the list.
Answers are plain numbers.

COCCCNC(=O)[C@@]1(c2ccc([N+](=O)[O-])cc2)CC(=O)N(C2CCCCC2)[C@@H]1c1ccc(CO)cc1: 0.296
O=C(CS)NCCCCCNC(=O)[C@H]1C[C@H]2C(=O)N3CCC[C@H]3C(=O)N2[C@H]1c1ccc(O)cc1: -1.07
COc1cc(Cc2cc3c(c(CCc4ccccc4)n2)[Si](C(C)C)(C(C)C)OC3)cc(OC)c1OC: -0.034
C/C(=N\O)C(=O)NCCCCCNC(=O)OCc1ccccc1: 0.777
CCOC(=O)C1=CC[C@@H](c2ccc(-c3ccc(OCc4ccccc4)cc3)c(OC)c2)N(S(=O)(=O)c2ccc(C)cc2)[C@H]1c1ccccc1: 1.28

Lab note: each compound below needs its composite z-score filled in.
1. COc1cc([C@@H]2N[C@H](C(=O)O)Cc3c2[nH]c2ccccc32)cc(OC)c1OC
2. COc1cc(CO)cc(I)c1O[C@H]1C=C(C(=O)NCCO)C[C@@H](NCCc2c[nH]c3ccccc23)[C@@H]1O
3. CC(C)[Si]1(C(C)C)O[C@@H](c2ccccc2)c2cc(C3CC3)nc(-c3ccc(Oc4ccccc4)cc3)c21

0.167
0.433
-0.343

Lab note: each compound below needs its composite z-score filled in.
1. C=CCC(OC(C)=O)[C@@H]1[C@@H](N(Cc2cccc3ccccc23)C(=O)c2ccc(C)cc2)c2cc(OCCCO)ccc2N1C(=O)c1ccc(-c2ccccc2)cc1 (stereo not given in full)
2. CC(c1ccccc1)C(O)C1C=CC2C(=O)N(C)C(=O)C2N1N(c1ccccc1)c1ccccc1 (stereo not given)

1. 0.0243
2. 0.187

* * *

Procedure details: basal MM1S mitochondrial membrane potential changes, profiling panel, cell-based, JC-1 fluorescence, 24 h, 100 nL compound (AID 1170); also: test concentration not given here
Run conditions: higher = more signal
Cut-off -0.8 on z-score, inclusive. At or above means class 1; below means class 0.

C=C(COC)/C(=C/C[C@H](OC(C)=O)c1ccc(OCCO)cc1)c1cnc2ccccc2c1: class 1
COCCOC(=O)N1C(=O)[C@@]2(c3cc(C#CC4=CCCCC4)ccc31)[C@H](c1ccc(O)cc1)N1[C@H](c3ccccc3)[C@H](c3ccccc3)OC(=O)[C@H]1[C@@H]2C(=O)N1CCCCCCC1: class 1
CN(C)CCCC[C@@H]1NC(=O)[C@@H]2C[C@H](C(=O)NCCCCCNC(=O)CS)[C@H](c3ccc(O)cc3)N2C1=O: class 1
Cc1ccc(S[C@]2(C(=O)O)CC(=O)N(Cc3ccccc3)[C@@H]2c2ccc(CO)cc2)cc1: class 1

Decide: z-score of O=C(NCc1ccccc1)[C@@]1(CCS(=O)(=O)c2ccccc2)COC(c2ccc(OCCCO)cc2)=N1 >= -0.8? class 0

Decide: z-score of COc1ccc([Si](C)(C)[C@H]2[C@H](CCO)O[C@@]3(C(=O)N(Cc4ccccc4)c4ccc(N5C(=O)c6cccc7cccc5c67)cc43)[C@@H]2C)cc1 >= -0.8? class 0

Decide: z-score of COc1cc2c(cc1OC)CN(C(=O)[C@H]1[C@@H]3C(=O)O[C@@H](c4ccccc4)[C@@H](c4ccccc4)N3[C@@H](c3ccccc3OCCO)[C@]13C(=O)Nc1ccc(C#CC4(O)CCCCCC4)cc13)CC2 >= -0.8? class 0

Decide: z-score of CCOC(=O)C1=CC[C@@H](c2ccccc2)N(S(=O)(=O)c2ccc(C)cc2)[C@H]1C >= -0.8? class 0

Decide: z-score of COCCOC(=O)N1C(=O)[C@@]2(c3cc(C#CCCO)ccc31)[C@H](c1ccc(O)cc1)N1[C@H](c3ccccc3)[C@H](c3ccccc3)OC(=O)[C@H]1[C@@H]2C(=O)Nc1nc2ccccc2s1 >= -0.8? class 0

Decide: z-score of Cc1ccc(S[C@]2(C(=O)NCCN3CCOCC3)CC(=O)N(C3Cc4ccccc4C3)[C@@H]2c2ccc(CO)cc2I)cc1 >= -0.8? class 0

Decide: z-score of C=CCN1C(=O)[C@]2(O[C@H](CCn3cc(CCO)nn3)[C@@H]([Si](C)(C)c3ccc(OC)cc3)[C@@H]2C)c2cc(NC(=O)c3ccc(OC)cc3)ccc21 >= -0.8? class 1

Decide: z-score of CO[C@@H]1COC(=O)[C@H](C)NC(=O)CC=C[C@@H](C)[C@H](OC)COC(=O)[C@H](C)NC(=O)CC=C[C@H]1C >= -0.8? class 1

* * *

Please respond with reported composite z-score for every item in the list.
Tested on: Wnt5a (protein binding on small-molecule microarray)
Procedure details: Wnt5a binders on small-molecule microarray, primary screen, biophysical, 635/667 nm fluorescence (AID 1142);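 also: fluorescence read at 667 nm with signal to noise per printed feature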
Run conditions: 635 nm fluorescence, higher = more signal
Answers are plain numbers.

Lab note: each compound below needs its composite z-score filled in.
1. N#Cc1ccc(NN2C(C(O)c3ccc(I)cc3)C=CC3C(=O)N(c4ccccc4)C(=O)C32)cc1 (stereo not drawn)
2. C=CCNC(=O)[C@H]1[C@@H]2C(=O)O[C@@H](c3ccccc3)[C@@H](c3ccccc3)N2[C@@H](c2ccccc2OCCO)[C@]12C(=O)N(C(=O)OCCOC)c1ccc(C#CCNC(N)=O)cc12

[0.205, -0.0103]

Give the reported composite z-score for this compound. CN1C(=O)C2C=CC(C(O)c3ccc(N(C)C)cc3)N(Nc3ccc([N+](=O)[O-])cc3[N+](=O)[O-])C2C1=O (stereo not drawn) 0.0988

* * *

Procedure details: cell viability in Huh7 cells, primary screen, cytotoxicity control for HCV replication inhibitor project, CellTiter-Glo luminescence, basal, 48 h (AID 1143);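 also: Huh7 hepatoma cells carrying a hepatitis C replication reporter with no stimulus; test concentration not given here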
Run conditions: Huh7 HCV replicon, higher = more signal, called active from +8 up or from −8 down
Please respond with reported z-score for every item in the list.
Give bare numbers.

Example entries and their recorded answers appear below.
C=C(CCCC)/C(=C/C[C@@H](OC(=O)c1ccncc1)c1ccc(CO)o1)c1cnc2ccccc2c1: -1.47
C=C(/C(=C/C[C@@H](OC(=O)c1ccncc1)c1ccc(CO)o1)c1cnc2ccccc2c1)C(C)C: -1.35
NC(=O)NCC#Cc1ccc2c(c1)[C@]1(C(=O)N2)[C@H](C(=O)N2CCCCCCC2)[C@H]2C(=O)O[C@H](c3ccccc3)[C@H](c3ccccc3)N2[C@@H]1c1ccccc1OCCO: -0.481

Lab note: each compound below needs its z-score filled in.
1. Cc1ccc(S(=O)(=O)c2cc3oc2CC[C@@H](CO)NC(=O)N(C)Cc2cn(nn2)C[C@H](Cc2ccccc2)NC3=O)cc1
2. O=C(NCC(F)(F)F)[C@@H]1c2ccccc2C(=O)N(Cc2ccccc2Cl)[C@H]1c1ccc(CO)cc1
3. O=C(O)[C@@H]1Cc2c([nH]c3ccccc23)[C@@H](c2ccccc2)N1
4. O=C(NCC(O)CO)[C@]1(Cc2ccccc2)N=C(c2ccc(OCCCO)cc2)O[C@@H]1c1ccccc1 (some centres not stated)
5. CCOC(=O)C1=C[C@@H](c2ccccc2)N(S(=O)(=O)c2ccc(C)cc2)[C@H]1c1ccc(F)cc1
6. N#Cc1ccc(NN2C(C(O)CCc3ccccc3)C=CC3C(=O)N(c4ccccc4)C(=O)C32)cc1 (configuration not stated)

1: -0.0124; 2: 0.197; 3: -0.691; 4: -3.91; 5: -3.77; 6: -0.843

Lab note: each compound below needs its z-score filled in.
1. C=C(CCCC)C(=O)CC[C@@H](OC(C)=O)c1ccccc1OCCO
2. CO[C@H]1COC(=O)CC=C[C@H](C)COC(=O)[C@@H](OCc2ccccc2)C=C[C@@H]1C
3. COC(=O)C[C@H]1O[C@]2(C(=O)N(Cc3ccccc3)c3ccc(I)cc32)[C@@H](C)[C@@H]1[Si](C)(C)c1ccc(OC)cc1
4. COc1cc2c(cc1OC)CN(C(=O)[C@H]1[C@@H]3C(=O)O[C@@H](c4ccccc4)[C@@H](c4ccccc4)N3[C@@H](c3ccc(O)cc3)[C@]13C(=O)Nc1ccc(C#CC4(O)CCCCCC4)cc13)CC2
5. C=C[C@H](OC)[C@@H](OC(=O)Nc1ccc(SC)cc1)c1ccc(OC)c(O)c1
6. C[C@]1(C(=O)NCc2ccccc2)c2ccccc2C(=O)N(Cc2cc(C(F)(F)F)cc(C(F)(F)F)c2)[C@H]1c1ccc(CO)cc1
7. C[C@@H]1NC(=O)[C@H](Cc2ccccc2)NC(=O)[C@@]23C(=O)N[C@@H](Cc4ccccc4)C2[C@H](C)[C@@]2(C)O[C@H]2C3/C=C/C/C=C\CNC1=O (some centres not stated)
8. O=C(NCc1ccccc1)[C@@]1(CCS(=O)(=O)c2ccccc2)COC(c2ccc(OCCCO)cc2)=N1

1: -3.08; 2: -4.32; 3: -1.09; 4: -0.715; 5: -0.0203; 6: -5.26; 7: 0.0081; 8: -3.07

Lab note: each compound below needs its z-score filled in.
1. COc1cccc([C@@H]2[C@@H](C)CC[C@H]3C(=O)N(C)[C@@H](C(C)C)C(=O)N23)c1
2. C=C(CCCC)/C(=C/C[C@H](OC(=O)c1ccncc1)c1cccc(OCCO)c1)c1cc(C(=O)OC)ccc1OC
3. C=CCC1=C[C@H]2[C@H]([C@@H]3C=C[C@]2(CC=C)C(=O)[C@]32CO2)[C@@]2(CO2)C1=O
4. CO[C@H]1COC(=O)[C@H](CCSC)NC(=O)CC=C[C@@H](C)COC(=O)[C@@H](OCc2ccccc2)C=C[C@@H]1C

1. -0.205
2. -5.25
3. -3.26
4. 0.111

Give the reported z-score for this compound. CC(C)C[C@@H]1NC(=O)[C@H]2C[C@@H](C(=O)NCCCCCC[N+](C)(C)C)[C@@H](c3ccc(O)cc3)N2C1=O -0.0365
